B1: Hairpin Ribozyme (parent)
chain: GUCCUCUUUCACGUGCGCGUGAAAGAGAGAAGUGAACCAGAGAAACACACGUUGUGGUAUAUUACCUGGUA

# Variants of: B1
# Method: self-cleavage, relative activity (ratio to wild type); higher = more cleavage; co-transcriptional
Endpoint: self-cleavage

Some entries whose results are on file:
A22G U53A
0.926
G1C U5G
0.237
A47U A71G
0.191

For the 2 variants below, give their self-cleavage values.
1. C12U A45U
2. U63A U70C

0.163
0.36

Hi team, please reply with self-cleavage for each item in this list.
1. U67G
2. C10U C38G
3. A36U

0.28
0.269
0.602

Okay, here is my list. What is self-cleavage for each of these?
1. A35U A41C
2. G21A U63A
3. G15C A61G
4. A24U G57A
5. G13U C37U
6. G25C A31G

1: 0.957; 2: 0.14; 3: 0.173; 4: 0.196; 5: 0.443; 6: 0.153
